tested on: NIH:3T3; format: cell-based, mouse; conditions: non cancerous cell line 3T3
pIC50: −log10 of the molar value.
Property: pIC50

Query string: Sample KFAKFAKKFAKFAKKFAKQHWSYGLRPG [Phor18-LHRH] — what was its pIC50?
Result string: < 5.00

###

test system: SKOV-3 cells; format: cell-based, human; details: SKOV-3, 24 hours incubation; read-out: IC50 (maximal efficacy)
Property: pIC50
Just so you know, pIC50 here is -log10 of the concentration in molar units; reply with that number alone.

Query string: Endpoint output: pIC50 of KFAKFAKKFAKFAKKFAKQHWSYGLRPG [Phor18-LHRH] . Value?
Result string: 4.94
